- assay-target: human A2B AR (Homo sapiens)
- Construct: expressed in transfected cells; host or cells: CHO cells
- Sequence (P29275 1-332): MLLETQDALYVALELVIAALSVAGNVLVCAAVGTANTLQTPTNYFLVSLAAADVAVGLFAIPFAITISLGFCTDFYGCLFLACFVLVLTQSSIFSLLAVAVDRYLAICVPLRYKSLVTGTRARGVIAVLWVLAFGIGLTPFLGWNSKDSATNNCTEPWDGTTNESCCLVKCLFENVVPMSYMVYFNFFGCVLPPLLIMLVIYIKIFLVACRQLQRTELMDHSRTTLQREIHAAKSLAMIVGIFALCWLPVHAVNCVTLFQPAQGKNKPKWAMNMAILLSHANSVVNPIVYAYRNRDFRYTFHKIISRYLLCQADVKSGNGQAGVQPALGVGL
- assay-name: Radioligand binding assay at human A2B AR vs. [^3H]PSB-603
- particulars: at 1,000 nM, read-out: % inhibition of radioligand binding at indicated concentration, A2B vs. [^3H]PSB-603
Quick rule for you: inhibition at 1 µM at 3% or higher means 1, lower means 0.

Example results:
CCn1c(=O)c2c(nc3n2CCN(Cc2ccccc2C(F)(F)F)C3)n(C)c1=O [Compound 14d]: 0
CCn1c(=O)c2c(nc3n2CCN(Cc2ccc(F)c(Br)c2)C3)n(CC)c1=O [Compound 15k]: 1
CCn1c(=O)c2c(nc3n2CCN(Cc2c(Cl)cccc2Cl)C3)n(C)c1=O [Compound 14k]: 1
Cn1c(=O)[nH]c(=O)c2c1nc1n2CCN(Cc2ccccc2Br)C1 [Compound 13a]: 0
CCn1c(=O)n(C)c(=O)c2c1nc1n2CCN(Cc2ccc(Cl)c(Cl)c2)C1 [Compound 16a]: 1

## Input Quick check, inhibition at 1 µM >= 3%? CCn1c(=O)c2c(nc3n2CCN(Cc2ccc(Br)cc2)C3)n(CC)c1=O [Compound 15e]
## Output 1

## Input Textbook exercise: given the entry Cn1c(=O)[nH]c(=O)c2c1nc1n2CCN(CCc2cccc(Cl)c2)C1 [Compound 13c] , state whether its inhibition at 1 µM is greater than or equal to 3%.
## Output 1

====

- assay-name: Thermodynamic solubility measurements
- Format: physicochemical
- particulars: aqueous solution, aqueous buffer, thermodynamic from solid; pH 7.4; read-out: solubility at pH 7.4
- Text: This is expected to facilitate dissolution in the stomach. Depending on the substitution pattern they may also be well soluble at higher pH values (Brunschweiger et al., [2014]). In the present study we measured thermodynamic solubility of only very few compounds exemplarily (14a-e, 14g, 15f,g) and confirmed their high solubility at pH 1 (see Table S1 in Supplementary Material). Most of these compounds were still soluble at pH 7.4. […]
measured-endpoint: solubility (µg/mL)
Answer format: numeric, µg/mL implied, no suffix.

Measured solubility of CCn1c(=O)c2c(nc3n2CCN(Cc2cccc(F)c2)C3)n(C)c1=O [Compound 14g] : 40

====

- assay-target: human A3 AR (Homo sapiens)
- Construct: expressed in transfected cells; host or cells: CHO cells
- Sequence (P0DMS8 whole entry): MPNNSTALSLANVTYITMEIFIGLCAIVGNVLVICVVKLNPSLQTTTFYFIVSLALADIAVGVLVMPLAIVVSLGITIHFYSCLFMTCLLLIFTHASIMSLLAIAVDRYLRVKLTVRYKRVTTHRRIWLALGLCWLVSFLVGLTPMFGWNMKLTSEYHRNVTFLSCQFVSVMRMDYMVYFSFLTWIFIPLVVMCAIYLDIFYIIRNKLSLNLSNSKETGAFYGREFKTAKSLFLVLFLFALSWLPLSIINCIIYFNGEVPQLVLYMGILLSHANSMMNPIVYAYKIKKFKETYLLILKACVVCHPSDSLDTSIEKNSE
- assay-name: Radioligand binding assay at human A3 AR vs. [^3H]PSB-11
- particulars: CHO cell membranes, n = 2 (n = 3 where marked a), read-out: Ki ± SEM, A3 vs. [^3H]PSB-11
Reported pKi by item:
Worth noting: pKi values are minus log10 of concentrations stated in mol/L.

Sample records with pKi:
C#CCn1c(=O)c2c(nc3n2CCN(Cc2ccccc2OC)C3)n(CC)c1=O [Compound 20f]: 5.12
CCn1c(=O)c2c(nc3n2CCN(Cc2cc(F)cc(Cl)c2)C3)n(C)c1=O [Compound 14n]: 4.81
CCn1c(=O)c2c(nc3n2CCN(Cc2cc(Br)ccc2F)C3)n(CC)c1=O [Compound 15l]: 4.88
CCn1c(=O)c2c(nc3n2CCN(Cc2cccc(Br)c2)C3)n(CC)c1=O [Compound 15d]: 5.14
C#CCn1c(=O)c2c(nc3n2CCN(c2ccccc2F)C3)n(CC)c1=O [Compound 20a]: 5.37
CCn1c(=O)c2c(nc3n2CCN(Cc2cccc(F)c2)C3)n(CC)c1=O [Compound 15b]: 5.15
CCn1c(=O)c2c(nc3n2CCN(Cc2ccc(C(F)(F)F)cc2)C3)n(C)c1=O [Compound 14f]: 4.73

Please look at the following molecule next.
Just so you know, measured pKi for CCn1c(=O)c2c(nc3n2CCN(Cc2ccc(Cl)c(C(F)(F)F)c2)C3)n(CC)c1=O [Compound 15p] came out at 5.14

====

- assay-name: Thermodynamic solubility measurements
- Format: physicochemical
- particulars: aqueous solution, simulated gastric fluid, thermodynamic from solid; pH 1; read-out: solubility at pH 1
measured-endpoint: solubility

Item: CCn1c(=O)c2c(nc3n2CCN(Cc2cccc(F)c2)C3)n(C)c1=O [Compound 14g] | solubility: > 1500 µg/mL

====

- assay-target: rat A2A AR (Rattus norvegicus, UniProt P30543)
- Construct: A2A ARs of rat brain striatal membrane preparations; from tissue; host or cells: rat brain striatum membranes
- Sequence (P30543 whole entry): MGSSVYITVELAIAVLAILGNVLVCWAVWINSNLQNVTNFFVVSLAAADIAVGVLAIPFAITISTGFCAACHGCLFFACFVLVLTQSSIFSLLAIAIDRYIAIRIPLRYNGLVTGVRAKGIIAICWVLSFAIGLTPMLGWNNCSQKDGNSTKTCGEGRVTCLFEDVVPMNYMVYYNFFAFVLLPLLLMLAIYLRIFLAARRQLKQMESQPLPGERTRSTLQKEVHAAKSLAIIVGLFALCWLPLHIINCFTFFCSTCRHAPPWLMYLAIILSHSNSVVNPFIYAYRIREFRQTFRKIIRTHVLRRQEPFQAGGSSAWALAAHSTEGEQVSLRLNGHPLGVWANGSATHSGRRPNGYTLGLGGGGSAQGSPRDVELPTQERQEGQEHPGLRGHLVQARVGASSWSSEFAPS
- assay-name: Radioligand binding assay at rat A2A AR (rat brain striatum) vs. [^3H]MSX-2
- particulars: rat (r); rat brain striatum; n = 3; read-out: Ki ± SEM, A2A vs. [^3H]MSX-2
pKi: −log10 of the molar value.
Label -1 if pKi falls below 6; label 1 in every other case.

Here are 5 compounds together with their reported answers.
Cn1c(=O)[nH]c(=O)c2c1nc1n2CCN(Cc2cccc(C(F)(F)F)c2)C1 [Compound 13b]: -1
Cn1c(=O)[nH]c(=O)c2c1nc1n2CCN(CCc2cccc(Br)c2)C1 [Compound 13d]: -1
CCn1c(=O)c2c(nc3n2CCN(Cc2cc(Cl)ccc2Cl)C3)n(C)c1=O [Compound 14j]: 1
CCn1c(=O)c2c(nc3n2CCN(Cc2cc(C(F)(F)F)ccc2F)C3)n(CC)c1=O [Compound 15j]: 1
CCn1c(=O)c2c(nc3n2CCN(Cc2ccc(F)cc2)C3)n(C)c1=O [Compound 14h]: -1

## Input Entry CCn1c(=O)c2c(nc3n2CCN(Cc2cccc(Cl)c2)C3)n(C)c1=O [Compound 14i] : is its pKi no less than 6?
## Output -1

## Input Quick check: does `Cn1c(=O)c2c(nc3n2CCN(Cc2ccc(Cl)c(Cl)c2)C3)n(C2CC2)c1=O` have pKi greater than or equal to 6?
## Output -1

## Input Could you tell me if the measured pKi of CCn1c(=O)c2c(nc3n2CCN(Cc2cccc(Cl)c2)C3)n(CC)c1=O [Compound 15c] reaches 6 or more?
## Output -1

## Input Does pKi meet or surpass 6 for CCn1c(=O)c2c(nc3n2CCN(Cc2ccc(F)c(C(F)(F)F)c2)C3)n(CC)c1=O [Compound 15i] ?
## Output -1

## Input Does pKi meet or surpass 6 for CCn1c(=O)c2c(nc3n2CCN(Cc2cc(F)c(F)c(F)c2)C3)n(CC)c1=O [Compound 15r] ?
## Output -1

## Input For this compound, is measured pKi 6 or higher? Cn1c(=O)[nH]c(=O)c2c1nc1n2CCN(CCc2cccc(C(F)(F)F)c2)C1 [Compound 13e]
## Output -1

====

- assay-target: rat A1 AR (Rattus norvegicus, UniProt P25099)
- Construct: A1 ARs of rat brain cortical membrane; from tissue; host or cells: rat brain cortex membranes
- Sequence (P25099 whole entry): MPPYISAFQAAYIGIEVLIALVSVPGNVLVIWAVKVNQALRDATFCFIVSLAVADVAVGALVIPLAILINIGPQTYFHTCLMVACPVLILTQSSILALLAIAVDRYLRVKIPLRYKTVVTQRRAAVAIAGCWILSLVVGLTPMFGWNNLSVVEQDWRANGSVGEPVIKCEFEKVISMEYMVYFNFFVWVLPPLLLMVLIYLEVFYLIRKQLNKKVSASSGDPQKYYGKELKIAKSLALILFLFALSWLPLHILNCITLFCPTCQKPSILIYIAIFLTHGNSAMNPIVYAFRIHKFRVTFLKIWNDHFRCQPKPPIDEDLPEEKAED
- assay-name: Radioligand binding assay at rat A1 AR (rat brain cortex) vs. [^3H]CCPA
- particulars: read-out: % inhibition of radioligand binding at indicated concentration, A1 vs. [^3H]CCPA; rat (r); at 1,500 nM
measured-endpoint: inhibition at 1.5 µM (%)
# unit: % | format: bare number

Reference set (3 entries):
Cn1c(=O)[nH]c(=O)c2c1nc1n2CCN(CCc2ccc(Cl)c(Cl)c2)C1 [Compound 13g]: 3
Cn1c(=O)[nH]c(=O)c2c1nc1n2CCN(Cc2ccccc2Br)C1 [Compound 13a]: 17
CCn1c(=O)c2c(nc3n2CCN(Cc2cc(C(F)(F)F)cc(C(F)(F)F)c2)C3)n(C)c1=O [Compound 14q]: 31

Noted for CCn1c(=O)c2c(nc3n2CCN(Cc2ccc(Cl)cc2C(F)(F)F)C3)n(CC)c1=O [Compound 15o] : its inhibition at 1.5 µM reads 41

Sure, the documented inhibition at 1.5 µM for CCn1c(=O)c2c(nc3n2CCN(Cc2cc(C(F)(F)F)cc(C(F)(F)F)c2)C3)n(CC)c1=O [Compound 15q] is 6

The value of inhibition at 1.5 µM measured for the compound CCn1c(=O)c2c(nc3n2CCN(Cc2ccc(F)c(C(F)(F)F)c2)C3)n(CC)c1=O [Compound 15i] turned out to be 19

get_value(item= Cn1c(=O)[nH]c(=O)c2c1nc1n2CCN(CCc2cccc(Cl)c2)C1 [Compound 13c] , readout=inhibition at 1.5 µM) returns 3

# inhibition at 1.5 µM of Cn1c(=O)[nH]c(=O)c2c1nc1n2CCN(CCc2cccc(C(F)(F)F)c2)C1 [Compound 13e] = 9

Sample Cn1c(=O)[nH]c(=O)c2c1nc1n2CCN(CCc2cccc(Br)c2)C1 [Compound 13d] ; inhibition at 1.5 µM observed: 1

Origin of measurements: paper PMC6028563
